Listed below: Percentage (%) normalized to highest intensity and corrected for background values for each entry.
Target: USP8 Rhod domain (Homo sapiens, UniProt P40818)
Construct: USP8 Rhod (174–317) (UniProt: P40818); GST (cleaved yes); made in house; host or cells: Escherichia coli BL21-Gold (DE3)
Sequence (P40818 174-317): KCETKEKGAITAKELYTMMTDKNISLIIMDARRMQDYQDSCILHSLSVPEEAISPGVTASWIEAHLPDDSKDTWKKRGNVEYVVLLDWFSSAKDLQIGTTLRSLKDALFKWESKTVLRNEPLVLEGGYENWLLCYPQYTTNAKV
Experiment: SPOT array of predicted peptides from known interactors, USP8 Rhod domain
Assay type: binding
Settings: Rhod-Peptide screening, SPOT array of predicted peptides; KIAA1614 positive control = 100
The answer should read as a number with its unit following.

Use the examples below as a reference point.
{"Sequence Text": "TGLTVPPALLRANSD", "Target Or System": "USP8 Rhod domain (Homo sapiens, UniProt P40818)", "Assay Value": "-1.11%"}
{"Sequence Text": "MAQALPWLLLWMGAG", "Target Or System": "USP8 Rhod domain (Homo sapiens, UniProt P40818)", "Assay Value": "1.42%"}
{"Sequence Text": "QPVYSSPRRLNCAE", "Target Or System": "USP8 Rhod domain (Homo sapiens, UniProt P40818)", "Assay Value": "17%"}

Please examine the following record next.
[ask] Would you kindly share the measured Percentage (%) normalized to highest intensity and corrected for background for IATYRRLLEGEEHRL ?
[reply] 5.44%
